- ASSAY OVERVIEW: Stability in Sprague-Dawley rat liver microsomes assessed as remaining parent compound level at 10 uM presence of NADPH regenerating system by HPLC analysis
- Assay type: ADME, Microsome
- SETTINGS: read-out: Stability
ASSAY READOUT: remaining at 10 µM (%)
Numbers only, in %.

[
  {
    "SUBSTANCE SMILES": "CC(C)c1onc(-c2c(Cl)cccc2Cl)c1COc1ccc(CNc2ccc(CC(=O)O)cc2)c(Cl)c1",
    "ASSAY READOUT": "remaining at 10 µM",
    "RESULT NUMBER": 48
  }
]

Could you now look at the following molecule, please?
In: Fill in reported remaining at 10 µM for this entry: "CC(C)c1onc(-c2c(Cl)cccc2Cl)c1COc1ccc(/C=C/c2cccc(C(=O)O)c2)c(Cl)c1"
Out: 10

###

- SYSTEM: Bile acid receptor (Homo sapiens) (UniProt Q96RI1)
- Sequence (Q96RI1 whole entry, the tested form may be a part): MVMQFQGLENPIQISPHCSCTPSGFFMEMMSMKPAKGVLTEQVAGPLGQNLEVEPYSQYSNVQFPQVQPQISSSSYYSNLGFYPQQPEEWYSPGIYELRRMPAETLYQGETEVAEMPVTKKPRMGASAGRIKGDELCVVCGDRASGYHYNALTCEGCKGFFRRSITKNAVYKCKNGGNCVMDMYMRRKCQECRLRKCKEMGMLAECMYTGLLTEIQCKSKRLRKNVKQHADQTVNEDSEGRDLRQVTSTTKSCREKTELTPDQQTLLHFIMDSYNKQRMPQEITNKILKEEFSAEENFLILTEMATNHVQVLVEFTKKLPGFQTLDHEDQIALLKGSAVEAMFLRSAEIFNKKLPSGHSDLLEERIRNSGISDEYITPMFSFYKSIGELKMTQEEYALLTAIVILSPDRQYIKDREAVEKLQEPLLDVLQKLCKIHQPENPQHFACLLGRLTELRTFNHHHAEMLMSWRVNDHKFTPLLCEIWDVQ
- ASSAY OVERVIEW: Activation of human FXR LBD expressed in HEK293T cells assessed as induction of receptor activation at 1 uM incubated for 12 to 14 hrs by luciferase reporter gene assay relative to GW4064
- Type: cell-based
- SETTINGS: HEK-293T
What %max was measured for each of the following?
Numbers only, in %.

Worked examples, 5 compounds total:
[
  {
    "SUBSTANCE SMILES": "CC(C)c1onc(-c2ccccc2)c1COc1ccc(COc2ccc(CC(=O)O)cc2)cc1",
    "UOM": "%",
    "%max": 11
  },
  {
    "SUBSTANCE SMILES": "CC(C)c1onc(-c2ccccc2Cl)c1COc1ccc(COc2ccc(OCC(=O)O)cc2)cc1",
    "UOM": "%",
    "%max": 17
  },
  {
    "SUBSTANCE SMILES": "CC(C)c1onc(-c2c(Cl)cccc2Cl)c1COc1ccc(CNc2ccc(CC(=O)O)cc2)c(Cl)c1",
    "UOM": "%",
    "%max": 31
  },
  {
    "SUBSTANCE SMILES": "CC(C)c1onc(-c2ccccc2C(F)(F)F)c1COc1ccc(CCCC(=O)O)cc1",
    "UOM": "%",
    "%max": 37
  },
  {
    "SUBSTANCE SMILES": "CC(C)c1onc(-c2c(Cl)cccc2Cl)c1COc1ccc(COc2ccc(CC(=O)O)cc2)cc1",
    "UOM": "%",
    "%max": 37
  }
]

Field: %max. Fill in for each record below.
1. CC(C)c1onc(-c2ccccc2)c1COc1ccc(COc2ccc(C(=O)O)cc2)cc1
2. Cc1cccc(C)c1-c1noc(C(C)C)c1COc1ccc(CCCC(=O)O)cc1
3. CC(C)c1onc(-c2c(Cl)cccc2Cl)c1COc1ccc(COc2ccc(CC(=O)O)cc2)c(Cl)c1

Out:
1: 5.1; 2: 15; 3: 117

###

- SYSTEM: Bile acid receptor (Homo sapiens, UniProt Q96RI1)
- Sequence (Q96RI1 whole entry, the tested form may be a part): as the sequence (Q96RI1 whole entry, the tested form may be a part) above
- ASSAY OVERVIEW: Activation of human FXR LBD expressed in HEK293T cells assessed as induction of receptor activation incubated for 12 to 14 hrs by luciferase reporter gene assay
ASSAY READOUT: EC50 (µM)
Numbers only, in µM.

Worked examples, 8 molecules total:
[
  {
    "SUBSTANCE SMILES": "CC(C)c1onc(-c2ccccc2Cl)c1COc1ccc(CCCC(=O)O)cc1",
    "SYSTEM": "Bile acid receptor (Homo sapiens, UniProt Q96RI1)",
    "EC50 [µM]": 3.8
  },
  {
    "SUBSTANCE SMILES": "CC(C)c1onc(-c2c(Cl)cccc2Cl)c1COc1ccc(CNc2ccc(CC(=O)O)cc2)cc1",
    "SYSTEM": "Bile acid receptor (Homo sapiens, UniProt Q96RI1)",
    "EC50 [µM]": 1.6
  },
  {
    "SUBSTANCE SMILES": "CC(C)c1onc(-c2ccccc2)c1COc1ccc(CCCC(=O)O)cc1",
    "SYSTEM": "Bile acid receptor (Homo sapiens, UniProt Q96RI1)",
    "EC50 [µM]": 31
  },
  {
    "SUBSTANCE SMILES": "CC(C)c1onc(-c2ccccc2)c1COc1ccc(COc2ccc(C(=O)O)cc2)cc1",
    "SYSTEM": "Bile acid receptor (Homo sapiens, UniProt Q96RI1)",
    "EC50 [µM]": 2.3
  },
  {
    "SUBSTANCE SMILES": "CC(C)c1onc(-c2ccccc2Cl)c1COc1ccc(COc2ccc(OCC(=O)O)cc2)cc1",
    "SYSTEM": "Bile acid receptor (Homo sapiens, UniProt Q96RI1)",
    "EC50 [µM]": 4.7
  },
  {
    "SUBSTANCE SMILES": "CC(C)c1onc(-c2c(Cl)cccc2Cl)c1COc1ccc(CCCC(=O)O)cc1",
    "SYSTEM": "Bile acid receptor (Homo sapiens, UniProt Q96RI1)",
    "EC50 [µM]": 6
  },
  {
    "SUBSTANCE SMILES": "CC(C)c1onc(-c2ccccc2Cl)c1COc1ccc(COc2ccc(CC(=O)O)cc2)cc1",
    "SYSTEM": "Bile acid receptor (Homo sapiens, UniProt Q96RI1)",
    "EC50 [µM]": 2.5
  },
  {
    "SUBSTANCE SMILES": "Cc1cccc(C)c1-c1noc(C(C)C)c1COc1ccc(CCCC(=O)O)cc1",
    "SYSTEM": "Bile acid receptor (Homo sapiens, UniProt Q96RI1)",
    "EC50 [µM]": 7.7
  }
]

Could you now look at the following molecule, please?
In: Supply EC50 measured with Bile acid receptor (Homo sapiens, UniProt Q96RI1) for "CC(C)c1onc(-c2ccccc2)c1COc1ccc(COc2ccc(CC(=O)O)cc2)cc1" .
Out: 11

###

What pEC50 was measured for each of the following?
- SYSTEM: Peroxisome proliferator-activated receptor delta (Homo sapiens, UniProt Q03181)
- Sequence (Q03181 whole entry, the tested form may be a part): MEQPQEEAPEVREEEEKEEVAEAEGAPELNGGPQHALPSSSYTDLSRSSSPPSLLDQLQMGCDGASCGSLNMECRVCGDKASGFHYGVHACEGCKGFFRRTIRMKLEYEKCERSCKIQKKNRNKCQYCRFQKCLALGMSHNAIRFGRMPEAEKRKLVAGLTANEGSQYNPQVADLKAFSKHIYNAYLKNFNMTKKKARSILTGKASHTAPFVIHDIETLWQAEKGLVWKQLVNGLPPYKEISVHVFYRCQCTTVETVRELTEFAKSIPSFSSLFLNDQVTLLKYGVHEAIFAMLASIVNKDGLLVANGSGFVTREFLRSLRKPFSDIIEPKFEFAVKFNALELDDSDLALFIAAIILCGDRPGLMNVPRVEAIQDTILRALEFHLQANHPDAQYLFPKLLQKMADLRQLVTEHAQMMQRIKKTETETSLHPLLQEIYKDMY
- ASSAY OVERVIEW: Activation of human PPAR-delta LBD expressed in HEK293T cells assessed as induction of receptor activation incubated for 12 to 14 hrs by luciferase reporter gene assay
Numbers only, as −log10 of the molar value.

Worked examples, 3 compounds total:
[
  {
    "SUBSTANCE SMILES": "CC(C)c1onc(-c2c(Cl)cccc2Cl)c1COc1ccc(COc2ccc(CC(=O)O)cc2)c(Cl)c1",
    "pEC50": 5.74
  },
  {
    "SUBSTANCE SMILES": "CC(C)c1onc(-c2c(Cl)cccc2Cl)c1COc1ccc(COc2ccc(CC(=O)O)cc2)cc1",
    "pEC50": 5.51
  },
  {
    "SUBSTANCE SMILES": "CC(C)c1onc(-c2ccccc2)c1COc1ccc(COc2ccc(CCC(=O)O)cc2)cc1",
    "pEC50": 4.96
  }
]

Field: pEC50. Fill in for each record below.
1. CC(C)c1onc(-c2c(Cl)cccc2Cl)c1COc1ccc(CNc2ccc(CC(=O)O)cc2)cc1
2. CC(C)c1onc(-c2c(Cl)cccc2Cl)c1COc1ccc(CNc2ccc(CC(=O)O)cc2)c(Cl)c1
3. CC(C)c1onc(-c2ccccc2)c1COc1ccc(CCCC(=O)O)cc1
4. CC(C)c1onc(-c2c(Cl)cccc2Cl)c1COc1ccc(CCCC(=O)O)cc1
5. CC(C)c1onc(-c2ccccc2Cl)c1COc1ccc(CCCC(=O)O)cc1
6. CC(C)c1onc(-c2ccccc2)c1COc1ccc(COc2ccc(CC(=O)O)cc2)cc1

Out:
1: 5.44; 2: 5.82; 3: 6.05; 4: 6.15; 5: 6.10; 6: 5.37

Field: pEC50. Fill in for each record below.
1. CC(C)c1onc(-c2ccccc2Cl)c1COc1ccc(COc2ccc(OCC(=O)O)cc2)cc1
2. CC(C)c1onc(-c2ccccc2Cl)c1COc1ccc(COc2ccc(CC(=O)O)cc2)cc1
3. Cc1cc(NCc2ccc(OCc3c(-c4c(Cl)cccc4Cl)noc3C(C)C)cc2)ccc1CC(=O)O

Out:
[5.14, 5.70, 5.05]

###

- ASSAY OVERVIEW: Aqueous solubility in pH 8 buffer by HPLC analysis
- Format: physicochemical
What solubility was measured for each of the following?

[
  {
    "SUBSTANCE SMILES": "CC(C)c1onc(-c2c(Cl)cccc2Cl)c1COc1ccc(CNc2ccc(CC(=O)O)cc2)c(Cl)c1",
    "solubility": "159 µg/mL"
  }
]

In: Fill in reported solubility for this entry: "CC(C)c1onc(-c2c(Cl)cccc2Cl)c1COc1ccc(/C=C/c2cccc(C(=O)O)c2)c(Cl)c1"
Out: < 0.1 µg/mL

###

What %max was measured for each of the following?
- SYSTEM: Peroxisome proliferator-activated receptor delta (Homo sapiens) (UniProt Q03181)
- ASSAY OVERVIEW: Activation of human PPAR-delta LBD expressed in HEK293T cells assessed as induction of receptor activation at 1 uM incubated for 12 to 14 hrs by luciferase reporter gene assay relative to L165,041
- Assay type: cell-based
- SETTINGS: HEK-293T
Answers are plain numbers, in %.

Field: %max. Fill in for each record below.
1. CC(C)c1onc(-c2c(Cl)cccc2Cl)c1COc1ccc(COc2ccc(CC(=O)O)cc2)c(Cl)c1
2. CC(C)c1onc(-c2ccccc2Cl)c1COc1ccc(COc2ccc(CC(=O)O)cc2)cc1
3. CC(C)c1onc(-c2c(Cl)cccc2Cl)c1COc1ccc(CNc2ccc(CC(=O)O)cc2)c(Cl)c1
4. Cc1cc(NCc2ccc(OCc3c(-c4c(Cl)cccc4Cl)noc3C(C)C)cc2)ccc1CC(=O)O
5. CC(C)c1onc(-c2ccccc2Cl)c1COc1ccc(CCCC(=O)O)cc1

Out:
15
23
17
15
9

Field: %max. Fill in for each record below.
1. CC(C)c1onc(-c2ccccc2)c1COc1ccc(CCCC(=O)O)cc1
2. CC(C)c1onc(-c2c(Cl)cccc2Cl)c1COc1ccc(COc2ccc(CC(=O)O)cc2)cc1
3. CC(C)c1onc(-c2c(Cl)cccc2Cl)c1COc1ccc(CNc2ccc(CC(=O)O)cc2)cc1
4. CC(C)c1onc(-c2ccccc2Cl)c1COc1ccc(COc2ccc(OCC(=O)O)cc2)cc1
5. CC(C)c1onc(-c2ccccc2)c1COc1ccc(COc2ccc(CC(=O)O)cc2)cc1
6. CC(C)c1onc(-c2ccccc2)c1COc1ccc(COc2ccc(CCC(=O)O)cc2)cc1

Out:
1: 8.7; 2: 17; 3: 15; 4: 15; 5: 54; 6: 32

In: Fill in reported %max for this entry: "CC(C)c1onc(-c2c(Cl)cccc2Cl)c1COc1ccc(CCCC(=O)O)cc1"
Out: 15

Source of measurements: ChEMBL document CHEMBL4627415
